MEASURE_NAME: melting point

INSERT INTO assay_data (compound_structure_string, result) VALUES
  ('CCCNc1cnc(C(=O)Nc2cccc(O)c2)cn1', '194 to 195 °C'),
  ('CCCCNc1cnc(C(=O)Nc2ccc(Cl)cc2O)cn1', '221.8 to 225.4 °C'),
  ('CCCCNc1cnc(C(=O)Nc2ccc(CC)cc2)cn1', '133.8 to 134.8 °C'),
  ('CCCCCCNc1cnc(C(=O)Nc2ccc(C)cc2)cn1', '163 to 164 °C'),
  ('CCCNc1cnc(C(=O)Nc2ccc(CC)cc2)cn1', '141.8 to 142.8 °C'),
  ('CCCCCCCNc1cnc(C(=O)Nc2ccc(Cl)cc2O)cn1', '199.8 to 200.8 °C'),
  ('CCCCCCNc1cnc(C(=O)Nc2ccc(O)cc2)cn1', '157.7 to 161.5 °C'),
  ('CCCCCCCCNc1cnc(C(=O)Nc2cccc(O)c2)cn1', '223 to 225.9 °C'),
  ('CCCCCCCCNc1cnc(C(=O)Nc2ccc(O)cc2)cn1', '142 to 143 °C'),
  ('CCCCCCNc1cnc(C(=O)Nc2cccc(C(F)(F)F)c2)cn1', '148 to 149 °C'),
  ('CCCCCCCNc1cnc(C(=O)Nc2cc(Cl)ccc2O)cn1', '243.6 to 246 °C'),
  ('CCCCCNc1cnc(C(=O)Nc2ccc(C)cc2)cn1', '155.9 to 156.6 °C'),
  ('CCCCCCNc1cnc(C(=O)Nc2cccc(O)c2)cn1', '225 to 226 °C'),
  ('CCCCCCNc1cnc(C(=O)Nc2cc(Cl)ccc2O)cn1', '249.3 to 251.9 °C'),
  ('CCCCCCCNc1cnc(C(=O)Nc2cccc(C(F)(F)F)c2)cn1', '148 to 149 °C'),
  ('CCCCNc1cnc(C(=O)Nc2cccc(O)c2)cn1', '203 to 204 °C'),
  ('CCCNc1cnc(C(=O)Nc2cccc(C(F)(F)F)c2)cn1', '155 to 156 °C'),
  ('CCCCCNc1cnc(C(=O)Nc2cccc(O)c2)cn1', '224.8 to 226.1 °C'),
  ('CCCCCCCCNc1cnc(C(=O)Nc2ccc(CC)cc2)cn1', '131 to 132 °C'),
  ('CCCCCNc1cnc(C(=O)Nc2ccc(O)cc2)cn1', '162.6 to 166.8 °C'),
  ('CCCCCCCCNc1cnc(C(=O)Nc2cccc(C(F)(F)F)c2)cn1', '135 to 136 °C'),
  ('CCCCCNc1cnc(C(=O)Nc2ccc(CC)cc2)cn1', '136.1 to 137.1 °C'),
  ('CCCCCNc1cnc(C(=O)Nc2cc(Cl)ccc2O)cn1', '250.3 to 255.1 °C'),
  ('CCCCCCCCNc1cnc(C(=O)Nc2ccc(Cl)cc2O)cn1', '196.9 to 197.9 °C'),
  ('CCCCCCCNc1cnc(C(=O)Nc2ccc(C)cc2)cn1', '157.8 to 158.9 °C'),
  ('CCCCCCCNc1cnc(C(=O)Nc2ccc(CC)cc2)cn1', '131 to 132 °C'),
  ('CCCCCCCNc1cnc(C(=O)Nc2ccc(O)cc2)cn1', '151.4 to 155.4 °C'),
  ('CCCCNc1cnc(C(=O)Nc2ccc(C)cc2)cn1', '162.6 to 163.6 °C'),
  ('CCCCCCCCNc1cnc(C(=O)Nc2ccc(C)cc2)cn1', '155 to 156 °C'),
  ('CCCCCCCCNc1cnc(C(=O)Nc2cc(Cl)ccc2O)cn1', '239.7 to 242.4 °C'),
  ('CCCCCCCNc1cnc(C(=O)Nc2cccc(O)c2)cn1', '222 to 223 °C'),
  ('CCCCNc1cnc(C(=O)Nc2ccc(O)cc2)cn1', '208 to 211.4 °C'),
  ('CCCCCNc1cnc(C(=O)Nc2cccc(C(F)(F)F)c2)cn1', '128 to 129 °C'),
  ('CCCCCNc1cnc(C(=O)Nc2ccc(Cl)cc2O)cn1', '206.5 to 208.7 °C');

* * *

Below, each entry is listed alongside its reported MIC.
System: Candida albicans ATCC 24433, CCM 8320
Experiment: Antifungal microdilution broth method (EUCAST)
Assay type: cell-based
Conditions: 48 h, read-out: MIC CA
MEASURE_NAME: MIC

INSERT INTO assay_data (compound, measure_name, result) VALUES
  ('CCCCNc1cnc(C(=O)Nc2cccc(C(F)(F)F)c2)cn1 [Compound 1b]', 'MIC', '> 125 µM'),
  ('CCCCCCCNc1cnc(C(=O)Nc2ccc(C)cc2)cn1 [Compound 4e]', 'MIC', '> 125 µM'),
  ('CCCNc1cnc(C(=O)Nc2cccc(C(F)(F)F)c2)cn1 [Compound 1a]', 'MIC', '> 125 µM'),
  ('CCCCCCCNc1cnc(C(=O)Nc2ccc(CC)cc2)cn1 [Compound 5e]', 'MIC', '> 125 µM'),
  ('CCCCCCCCNc1cnc(C(=O)Nc2cccc(O)c2)cn1 [Compound 2f]', 'MIC', '> 125 µM'),
  ('CCCCCCCCNc1cnc(C(=O)Nc2cccc(C(F)(F)F)c2)cn1 [Compound 1f]', 'MIC', '> 500 µM'),
  ('CCCCNc1cnc(C(=O)Nc2ccc(C)cc2)cn1 [Compound 4b]', 'MIC', '> 125 µM'),
  ('CCCCCCNc1cnc(C(=O)Nc2ccc(C)cc2)cn1 [Compound 4d]', 'MIC', '> 125 µM'),
  ('CCCCCNc1cnc(C(=O)Nc2ccc(O)cc2)cn1 [Compound 3c]', 'MIC', '62.5 µM'),
  ('CCCCNc1cnc(C(=O)Nc2cccc(O)c2)cn1 [Compound 2b]', 'MIC', '> 125 µM'),
  ('CCCCCCCNc1cnc(C(=O)Nc2cccc(C(F)(F)F)c2)cn1 [Compound 1e]', 'MIC', '> 500 µM'),
  ('CCCCNc1cnc(C(=O)Nc2ccc(O)cc2)cn1 [Compound 3b]', 'MIC', '62.5 µM'),
  ('CCCCCCCCNc1cnc(C(=O)Nc2ccc(C)cc2)cn1 [Compound 4f]', 'MIC', '> 125 µM'),
  ('CCCNc1cnc(C(=O)Nc2ccc(CC)cc2)cn1 [Compound 5a]', 'MIC', '> 125 µM'),
  ('CCCCCNc1cnc(C(=O)Nc2ccc(C)cc2)cn1 [Compound 4c]', 'MIC', '> 125 µM');

* * *

System: Mycobacterium smegmatis DSM 43465 (ATCC 607)
Assay: Microdilution broth, modified Microplate Alamar Blue Assay, whole cell growth inhibition
Type: cell-based
Conditions: Mycolicibacterium smegmatis; in vitro, Middlebrook 7H9 broth, resazurin; read-out: MIC Mycobacterium smegmatis
Measured MIC, listed per entry.
MEASURE_NAME: MIC

INSERT INTO assay_data (molecule, result) VALUES
  ('O=C(Nc1cccc(C(F)(F)F)c1)c1cnc(Cl)cn1 [Compound 1]', '≥ 500 µg/mL'),
  ('Cc1ccc(NC(=O)c2cnc(Cl)cn2)cc1 [Compound 4]', '≥ 500 µg/mL'),
  ('CCCNc1cnc(C(=O)Nc2cc(Cl)ccc2O)cn1 [Compound 7a]', '< 3.91 µg/mL');

* * *

# MIC KP per entry
Test system: Klebsiella pneumoniae ATCC 10031, CCM 4415
Assay: Antibacterial microdilution broth method (EUCAST)
Details: 24h
MEASURE_NAME: MIC KP

INSERT INTO assay_data (molecule, measure_name, result) VALUES
  ('CCCNc1cnc(C(=O)Nc2cccc(C(F)(F)F)c2)cn1 [Compound 1a]', 'MIC KP', '> 500 µM'),
  ('CCCCNc1cnc(C(=O)Nc2cccc(O)c2)cn1 [Compound 2b]', 'MIC KP', '> 500 µM'),
  ('CCCCNc1cnc(C(=O)Nc2ccc(C)cc2)cn1 [Compound 4b]', 'MIC KP', '> 125 µM'),
  ('CCCCCCCNc1cnc(C(=O)Nc2ccc(O)cc2)cn1 [Compound 3e]', 'MIC KP', '> 500 µM'),
  ('CCCCCCCCNc1cnc(C(=O)Nc2cccc(C(F)(F)F)c2)cn1 [Compound 1f]', 'MIC KP', '> 500 µM'),
  ('CCCNc1cnc(C(=O)Nc2ccc(CC)cc2)cn1 [Compound 5a]', 'MIC KP', '> 125 µM'),
  ('CCCCCCNc1cnc(C(=O)Nc2ccc(CC)cc2)cn1 [Compound 5d]', 'MIC KP', '> 500 µM'),
  ('CCCCCNc1cnc(C(=O)Nc2ccc(C)cc2)cn1 [Compound 4c]', 'MIC KP', '> 500 µM'),
  ('CCCCNc1cnc(C(=O)Nc2cccc(C(F)(F)F)c2)cn1 [Compound 1b]', 'MIC KP', '> 500 µM'),
  ('CCCCCNc1cnc(C(=O)Nc2cccc(C(F)(F)F)c2)cn1 [Compound 1c]', 'MIC KP', '> 500 µM'),
  ('CCCNc1cnc(C(=O)Nc2cccc(O)c2)cn1 [Compound 2a]', 'MIC KP', '> 125 µM'),
  ('CCCCNc1cnc(C(=O)Nc2ccc(O)cc2)cn1 [Compound 3b]', 'MIC KP', '> 500 µM'),
  ('CCCCCNc1cnc(C(=O)Nc2ccc(O)cc2)cn1 [Compound 3c]', 'MIC KP', '> 125 µM'),
  ('CCCCCCNc1cnc(C(=O)Nc2cccc(C(F)(F)F)c2)cn1 [Compound 1d]', 'MIC KP', '> 500 µM'),
  ('CCCCCCCNc1cnc(C(=O)Nc2ccc(CC)cc2)cn1 [Compound 5e]', 'MIC KP', '> 500 µM'),
  ('CCCCCCCCNc1cnc(C(=O)Nc2cccc(O)c2)cn1 [Compound 2f]', 'MIC KP', '> 125 µM');
